target: 5-hydroxytryptamine receptor 2B (Rattus norvegicus) (UniProt P30994); assay: Binding affinity analysed for 5-HT 2B receptor in rat stomach fundus; type: tissue-based
Sequence (P30994 whole entry): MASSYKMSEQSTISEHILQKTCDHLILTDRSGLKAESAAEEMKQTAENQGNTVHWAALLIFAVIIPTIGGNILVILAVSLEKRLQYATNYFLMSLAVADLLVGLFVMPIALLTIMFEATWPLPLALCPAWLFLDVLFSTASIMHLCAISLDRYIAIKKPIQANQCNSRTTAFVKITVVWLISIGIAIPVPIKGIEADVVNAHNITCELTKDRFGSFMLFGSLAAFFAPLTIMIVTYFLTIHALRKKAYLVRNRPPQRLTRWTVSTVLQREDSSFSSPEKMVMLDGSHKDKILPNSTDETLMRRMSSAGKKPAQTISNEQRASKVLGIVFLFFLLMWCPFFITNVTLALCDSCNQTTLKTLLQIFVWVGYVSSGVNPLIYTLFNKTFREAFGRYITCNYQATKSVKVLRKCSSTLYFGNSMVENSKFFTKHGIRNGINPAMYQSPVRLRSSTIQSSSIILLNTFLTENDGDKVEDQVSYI
I'd be grateful if you could share measured -Log KB for these entries.
// return a plain number; no unit text

Indicate the recorded -Log KB value for this compound: Cc1ccc(CC2NCCc3c2[nH]c2ccccc32)cc1 (stereo unspecified)
7.84

Indicate the recorded -Log KB value for this compound: COc1cc(CC2NCCc3c2[nH]c2ccc(C)cc32)cc(N)c1OC (stereo unspecified)
8.89

Indicate the recorded -Log KB value for this compound: COc1ccc(CC2NCCc3c2[nH]c2cc(C)cc(C)c32)cc1OC (stereo unspecified)
9.34

Indicate the recorded -Log KB value for this compound: COc1ccc(CC2NCC(C)c3c2[nH]c2c(C)cccc32)cc1OC (stereo unspecified)
9.29

Indicate the recorded -Log KB value for this compound: COc1ccc2c3c([nH]c2c1)C(Cc1ccc(OC)c(OC)c1)NCC3 (stereo unspecified)
7.31
